# measurementDescription: Cytotoxicity in uninfected RD cells (CC50, MTT)
# Type: cell-based
# conditionDetails: human, Table 1
Kindly state CC50 at 48 h for each of the entries shown.

Query: Identify CC50 at 48 h associated with the compound O=C(COc1cccc(Cl)c1)OC1C(O)C=C2CCN3Cc4cc5c(cc4C1C23)OCO5 (stereo not drawn)
Response: 152 µM

Query: Identify CC50 at 48 h associated with the compound O=C(CCOc1ccccc1)OC1C(O)C=C2CCN3Cc4cc5c(cc4C1C23)OCO5 (stereo not drawn)
Response: 134 µM

Query: Identify CC50 at 48 h associated with the compound O=C(CSc1ccc(Cl)cc1)OC1C(O)C=C2CCN3Cc4cc5c(cc4C1C23)OCO5 (stereo not drawn)
Response: 131 µM

Query: Identify CC50 at 48 h associated with the compound Cc1ccc(OCC(=O)OC2C(O)C=C3CCN4Cc5cc6c(cc5C2C34)OCO6)c(C)c1 (stereo not drawn)
Response: 149 µM

Query: Identify CC50 at 48 h associated with the compound O=C(CCCOc1ccccc1)OC1C(O)C=C2CCN3Cc4cc5c(cc4C1C23)OCO5 (stereo not drawn)
Response: 150 µM

Query: Identify CC50 at 48 h associated with the compound `O[C@H]1[C@H]2c3cc4c(cc3CN3CCC(=C[C@@H]1O)[C@H]23)OCO4`
Response: 105 µM

Query: Identify CC50 at 48 h associated with the compound Cc1ccc(OCC(=O)OC2C(O)C=C3CCN4Cc5cc6c(cc5C2C34)OCO6)cc1 (stereo not drawn)
Response: 134 µM

Query: Identify CC50 at 48 h associated with the compound O=C(COc1ccc([N+](=O)[O-])cc1)OC1C(O)C=C2CCN3Cc4cc5c(cc4C1C23)OCO5 (stereo not drawn)
Response: 105 µM

Query: Identify CC50 at 48 h associated with the compound O=C(COc1ccccc1[N+](=O)[O-])OC1C(O)C=C2CCN3Cc4cc5c(cc4C1C23)OCO5 (stereo not drawn)
Response: 156 µM

Query: Identify CC50 at 48 h associated with the compound O=C(COc1ccc2ccccc2c1)OC1C(O)C=C2CCN3Cc4cc5c(cc4C1C23)OCO5 (stereo not drawn)
Response: 163 µM

Query: Identify CC50 at 48 h associated with the compound O=C(COc1ccc(Cl)cc1Cl)OC1C(O)C=C2CCN3Cc4cc5c(cc4C1C23)OCO5 (stereo not drawn)
Response: 130 µM

Query: Identify CC50 at 48 h associated with the compound O=C(COc1ccc(Br)cc1)OC1C(O)C=C2CCN3Cc4cc5c(cc4C1C23)OCO5 (stereo not drawn)
Response: 103 µM

Cited source: patent US11932653B2
